# Tested on: ENR+CD organoids (ISC to Paneth cell differentiation)
# Assay comment: Primary screen: basal (non-stimulated) lysozyme secretion LYZ.NS, 2.5-D 384-well ENR+CD organoid differentiation
# Format: cell-based, mouse
# Conditions used: primary screen, dose 2.00 uM
Collected Z.LYZ.NS (standard z score) values appear next to each entry.
Metric: Z.LYZ.NS (standard z score)

[[record]]
item_smiles = "C[C@]1(c2nc3c(C(N)=O)cccc3[nH]2)CCCN1"
measured_on = "ENR+CD organoids (ISC to Paneth cell differentiation)"
reading = 0.203

[[record]]
item_smiles = "O=C1NC(=O)/C(=C/c2ccc(-c3ccc(F)cc3O)o2)S1"
measured_on = "ENR+CD organoids (ISC to Paneth cell differentiation)"
reading = "−0.695"

[[record]]
item_smiles = "CNCc1ccc(-c2cc(-c3nc(-c4ccc(S(=O)(=O)C(C)C)cc4)cnc3N)on2)cc1"
measured_on = "ENR+CD organoids (ISC to Paneth cell differentiation)"
reading = "−1.913"

[[record]]
item_smiles = "C[C@@H]1COCCN1c1cc(C2(S(C)(=O)=O)CC2)nc(-c2cccc3[nH]ccc23)n1"
measured_on = "ENR+CD organoids (ISC to Paneth cell differentiation)"
reading = "−1.868"

[[record]]
item_smiles = "COc1ccc2c(c1)c(C1=C(c3c[nH]c4ccccc34)C(=O)NC1=O)cn2CCCN(C)C"
measured_on = "ENR+CD organoids (ISC to Paneth cell differentiation)"
reading = 0.791


---

# Tested on: ENR+CD organoids (ISC to Paneth cell differentiation)
# Assay comment: Primary screen: CCh-stimulated lysozyme secretion LYZ.S, 2.5-D 384-well ENR+CD organoid differentiation
# Type: cell-based, mouse
# Conditions used: primary screen; dose 2.00 uM; FC vs plate median
Where a name gives a salt, the structure may show the parent alone.
// class assignment uses Dose.FC.LYZ.S with these ranges: bucket 1 (below -0.1 log2 fold change), bucket 2 (-0.1 log2 fold change to below 0.03 log2 fold change), bucket 3 (0.03 log2 fold change or more)

[[record]]
molecule = "O=C(O)/C=C/c1ccc(Cn2ccnc2)cc1 [Ozagrel HCl]"
class_assignment = "bucket 3"

[[record]]
molecule = "O=C1CC[C@@]2(O)[C@H]3Cc4ccc(O)c5c4[C@@]2(CCN3CC2CC2)[C@H]1O5 [Naltrexone HCl]"
class_assignment = "bucket 2"

[[record]]
molecule = "O=C(NNc1ccccc1)c1ccncc1"
class_assignment = "bucket 1"

[[record]]
molecule = "Cc1cc(C(C)(C)C)c(O)c(C)c1CC1=NCCN1 [Oxymetazoline HCl]"
class_assignment = "bucket 2"

[[record]]
molecule = "CN(c1ncccc1CNc1nc(Nc2ccc3c(c2)CC(=O)N3)ncc1C(F)(F)F)S(C)(=O)=O"
class_assignment = "bucket 1"

[[record]]
molecule = "NCC(=O)Nc1ccc(-n2nc(C(F)(F)F)cc2-c2ccc3c(ccc4ccccc43)c2)cc1"
class_assignment = "bucket 3"

[[record]]
molecule = "Cc1ccc(S(=O)(=O)c2ccc([N+](=O)[O-])o2)cc1"
class_assignment = "bucket 1"

[[record]]
molecule = "COc1cc(OC)c(NC(=O)Nc2cc(C)on2)cc1Cl"
class_assignment = "bucket 3"

[[record]]
molecule = "CC(C)(Cc1ccc2ccccc2c1)NC[C@@H](O)COc1cccc(Cl)c1C#N"
class_assignment = "bucket 1"

[[record]]
molecule = "FC(F)(F)c1ccc(/C=C/c2nc(COc3ccc(CCCCn4ccnn4)cc3)co2)cc1"
class_assignment = "bucket 1"

[[record]]
molecule = "CC(C)CC(=O)Nc1[nH]nc2c1CN(C(=O)C1CCN(C)CC1)C2(C)C"
class_assignment = "bucket 2"

[[record]]
molecule = "CCC(CC)(NC(=O)C(C)C)C(=O)N[C@@H](CCCN=C(N)N)C(=O)NC1(C(=O)NC(c2ccc(F)cc2)c2ccc(F)cc2)CCCC1"
class_assignment = "bucket 2"

[[record]]
molecule = "COc1ccc(-c2nc3ccc(C4=NNC(=O)CC4C)cc3[nH]2)cc1 (centres unmarked)"
class_assignment = "bucket 3"

[[record]]
molecule = "CCCC(=O)Nc1cccc(NC(=O)c2ccccc2Br)c1"
class_assignment = "bucket 2"


---

# Test system: ENR+CD organoids
# Assay comment: Primary screen: ATP (CellTiter-Glo 3D, CTG) cell number/viability, 2.5-D 384-well ENR+CD organoids
# Conditions used: primary screen, dose 2.00 uM, FC relative to plate median
In this section we review reported Dose.FC.CTG values for a set of compounds.
Metric: Dose.FC.CTG (log2 fold change)

[[record]]
compound = "O=C(NNc1nc2cc(F)ccc2n2cccc12)c1cnccn1 [SC144]"
reading = "−0.257"

[[record]]
compound = "O=C(NC[C@H]1CN(c2ccc(N3CCOCC3=O)cc2)C(=O)O1)c1ccc(Cl)s1 [Rivaroxaban]"
reading = 0.052

[[record]]
compound = "Nc1ccc(C(=O)[O-])c(O)c1.[Na+] [Sodium 4-Aminosalicylate]"
reading = 0.038

[[record]]
compound = "O=C(Nc1ccccc1Br)N[C@@H]1CCN(c2ccc(C(F)(F)F)cn2)C1 [SB705498]"
reading = "−0.004"

[[record]]
compound = "O=C1NC(=O)C(c2ccccc2[N+](=O)[O-])=C1Nc1ccc(O)c(Cl)c1 [SB415286]"
reading = "−0.097"

[[record]]
compound = "O=C(NCc1cccc(O)c1)Nc1nc(-c2ccncc2)cs1 [RKI-1447]"
reading = "−0.226"


---

# Test system: ENR+CD organoids (ISC to Paneth cell differentiation)
# Assay comment: Primary screen: basal (non-stimulated) lysozyme secretion LYZ.NS, 2.5-D 384-well ENR+CD organoid differentiation
# Type: cell-based, mouse
# Conditions used: primary screen, dose 10.00 uM
Listed compounds paired with reported Dose.FC.LYZ.NS (log2 fold change)
Metric: Dose.FC.LYZ.NS (log2 fold change)

[[record]]
compound = "Cc1cc(SCc2sc(-c3ccc(C(F)(F)F)c(F)c3)nc2C)ccc1OCC(=O)O"
reading = "−0.152"

[[record]]
compound = "COc1ccc2c(c1)c(C1=C(c3c[nH]c4ccccc34)C(=O)NC1=O)cn2CCCN(C)C"
reading = "−0.092"

[[record]]
compound = "CCc1cc(Nc2nccc(-c3c(-c4ccc(OC)c(C(=O)Nc5c(F)cccc5F)c4)nc4ccccn34)n2)c(OC)cc1N1CCC(N2CCN(S(C)(=O)=O)CC2)CC1 [GSK1904529A]"
reading = "−0.163"


---

Examples of compounds with documented Z.CTG (standard z score) follow.
# Tested on: ENR+CD organoids
# Assay comment: Primary screen: ATP (CellTiter-Glo 3D, CTG) cell number/viability, 2.5-D 384-well ENR+CD organoids;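 also: compounds given at plating and again on day 3 over a 6-day differentiation from ENR+CV stem-cell-enriched precursors, ATP measured on day 6, plate median as control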
# Conditions used: primary screen, dose 10.00 uM
Metric: Z.CTG (standard z score)

[[record]]
compound = "O=c1cc(-c2cccc3c2Sc2ccccc2S3)oc(N2CCOCC2)c1 [KU-55933 (ATM Kinase Inhibitor)]"
metric = "Z.CTG (standard z score)"
reading = 1.293

[[record]]
compound = "O=C(O)c1cccc(-c2noc(-c3ccccc3F)n2)c1 [Ataluren (PTC124)]"
metric = "Z.CTG (standard z score)"
reading = 0.013

[[record]]
compound = "COc1nc(C)cnc1NS(=O)(=O)c1cccnc1-c1ccc(-c2nnco2)cc1 [Zibotentan (ZD4054)]"
metric = "Z.CTG (standard z score)"
reading = "−0.003"

[[record]]
compound = "NC(=O)Nc1sc(-c2ccc(F)cc2)cc1C(N)=O [TPCA-1]"
metric = "Z.CTG (standard z score)"
reading = "−1.269"

[[record]]
compound = "CN1CCCCC1Cn1cc(C(=O)c2cc([N+](=O)[O-])ccc2I)c2ccccc21 (stereo not drawn) [AM1241]"
metric = "Z.CTG (standard z score)"
reading = "−0.002"

[[record]]
compound = "Cc1ccc(NCCCc2ccccc2)c(N)c1 [JSH-23]"
metric = "Z.CTG (standard z score)"
reading = 0.110

[[record]]
compound = "COc1ccc2c(c1)c(C1=C(c3c[nH]c4ccccc34)C(=O)NC1=O)cn2CCCN(C)C [Go 6983]"
metric = "Z.CTG (standard z score)"
reading = "−0.433"

[[record]]
compound = "CCN[C@H]1CN(CCCOC)S(=O)(=O)c2sc(S(N)(=O)=O)cc21 [Brinzolamide]"
metric = "Z.CTG (standard z score)"
reading = 0.186

[[record]]
compound = "CC1(C)CCC(c2ccc(Cl)cc2)=C(CN2CCN(c3ccc(C(=O)NS(=O)(=O)c4ccc(N[C@H](CCN5CCOCC5)CSc5ccccc5)c(S(=O)(=O)C(F)(F)F)c4)cc3)CC2)C1 [ABT-263 (Navitoclax)]"
metric = "Z.CTG (standard z score)"
reading = "−2.298"

[[record]]
compound = "CN(C)C(=O)Nc1cccc(-c2ccc(N(C)C)cc2)c1 [Atglistatin]"
metric = "Z.CTG (standard z score)"
reading = "−1.031"

[[record]]
compound = "CCNC(=O)c1noc(-c2cc(C(C)C)c(O)cc2O)c1-c1ccc(CN2CCOCC2)cc1 [AUY922 (NVP-AUY922)]"
metric = "Z.CTG (standard z score)"
reading = "−3.032"

[[record]]
compound = "C[C@H](Oc1cc(-c2cnn(C3CCNCC3)c2)cnc1N)c1c(Cl)ccc(F)c1Cl [(S)-crizotinib]"
metric = "Z.CTG (standard z score)"
reading = 0.046

[[record]]
compound = "C[C@H](Cn1cnc2c(N)ncnc21)OCP(=O)(O)O [Tenofovir]"
metric = "Z.CTG (standard z score)"
reading = "−0.804"

[[record]]
compound = "CC(C)c1c(C(=O)Nc2ccccc2)c(-c2ccccc2)c(-c2ccc(F)cc2)n1CC[C@@H](O)C[C@@H](O)CC(=O)[O-].CC(C)c1c(C(=O)Nc2ccccc2)c(-c2ccccc2)c(-c2ccc(F)cc2)n1CC[C@@H](O)C[C@@H](O)CC(=O)[O-].[Ca+2] [Atorvastatin Calcium]"
metric = "Z.CTG (standard z score)"
reading = "−3.780"

[[record]]
compound = "C=CC(=O)Nc1cccc(Nc2nc(Nc3ccc(OCCOC)cc3)ncc2F)c1 [AVL-292]"
metric = "Z.CTG (standard z score)"
reading = "−1.859"

[[record]]
compound = "CNC(=O)[C@H](Cc1c[nH]c2ccccc12)NC(=O)[C@@H](CC(=O)NO)CC(C)C [Ilomastat (GM6001, Galardin)]"
metric = "Z.CTG (standard z score)"
reading = "−0.264"

[[record]]
compound = "C=CC(=O)Nc1cccc(Oc2nc(Nc3ccc(N4CCN(C)CC4)cc3OC)ncc2Cl)c1 [WZ4002]"
metric = "Z.CTG (standard z score)"
reading = "−2.248"

[[record]]
compound = "CCc1cc(Nc2nccc(-c3c(-c4ccc(OC)c(C(=O)Nc5c(F)cccc5F)c4)nc4ccccn34)n2)c(OC)cc1N1CCC(N2CCN(S(C)(=O)=O)CC2)CC1 [GSK1904529A]"
metric = "Z.CTG (standard z score)"
reading = "−1.649"

[[record]]
compound = "CN(C)CCCCC(=O)Nc1ccc(NC(=S)NC(=O)c2ccc(C(C)(C)C)cc2)cc1 [Tenovin-6]"
metric = "Z.CTG (standard z score)"
reading = "−3.414"

[[record]]
compound = "CNC(=O)[C@H](Cc1ccccc1)NC(=O)[C@H](CC(C)C)[C@H](CSc1cccs1)C(=O)NO [Batimastat (BB-94)]"
metric = "Z.CTG (standard z score)"
reading = "−0.676"

[[record]]
compound = "COc1cc(N2CCN(C)CC2)ccc1Nc1nccc(-c2cn(C)c3cnccc23)n1 [AZ191]"
metric = "Z.CTG (standard z score)"
reading = "−1.272"

[[record]]
compound = "CCCS(=O)(=O)Nc1ccc(F)c(C(=O)c2c[nH]c3ncc(-c4ccc(Cl)cc4)cc23)c1F [Vemurafenib (PLX4032, RG7204)]"
metric = "Z.CTG (standard z score)"
reading = 0.073

[[record]]
compound = "COc1cc(-n2c(=S)[nH]c3ccccc3c2=O)c(Cl)cc1Cl [Mdivi-1]"
metric = "Z.CTG (standard z score)"
reading = "−1.259"

[[record]]
compound = "Fc1cc(F)c2c(c1)[C@H]1C=CC[C@H]1C(c1cccnc1)N2 (mixture of isomers) [Golgicide A]"
metric = "Z.CTG (standard z score)"
reading = "−0.526"

